The following compounds have recorded AC50 on Cannabinoid receptor 1 (Homo sapiens, UniProt P21554).
Sequence (P21554 whole entry): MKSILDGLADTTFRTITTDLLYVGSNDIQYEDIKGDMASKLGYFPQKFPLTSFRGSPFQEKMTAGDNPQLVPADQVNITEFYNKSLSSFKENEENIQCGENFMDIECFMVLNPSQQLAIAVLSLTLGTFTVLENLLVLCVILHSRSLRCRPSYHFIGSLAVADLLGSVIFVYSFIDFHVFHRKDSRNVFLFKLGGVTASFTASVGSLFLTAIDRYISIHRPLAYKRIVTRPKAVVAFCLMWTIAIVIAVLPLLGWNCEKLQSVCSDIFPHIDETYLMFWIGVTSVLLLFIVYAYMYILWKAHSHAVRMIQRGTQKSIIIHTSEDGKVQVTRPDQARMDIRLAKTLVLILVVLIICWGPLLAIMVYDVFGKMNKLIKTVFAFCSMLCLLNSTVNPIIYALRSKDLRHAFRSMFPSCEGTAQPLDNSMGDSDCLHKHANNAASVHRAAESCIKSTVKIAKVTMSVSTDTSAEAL
Value type: AC50

1. O=C(O)C1=C(CSc2nnnn2CS(=O)(=O)O)CS[C@@H]2[C@H](NC(=O)[C@H](O)c3ccccc3)C(=O)N12 | > 30 µM
2. NCC(CC(=O)O)c1ccc(Cl)cc1 (centres undefined) | > 10 µM
3. CN(C)CCC=C1c2ccccc2C=Cc2ccccc21 | > 10 µM
4. COc1ccc2c3c1O[C@H]1[C@@H](O)C=C[C@H]4[C@@H](C2)N(C)CC[C@@]341 | > 10 µM

====

target: 5-hydroxytryptamine receptor 1A (Homo sapiens, UniProt P08908); assay type: functional, cell-based; also: assay procedure not described here
Sequence (P08908 whole entry): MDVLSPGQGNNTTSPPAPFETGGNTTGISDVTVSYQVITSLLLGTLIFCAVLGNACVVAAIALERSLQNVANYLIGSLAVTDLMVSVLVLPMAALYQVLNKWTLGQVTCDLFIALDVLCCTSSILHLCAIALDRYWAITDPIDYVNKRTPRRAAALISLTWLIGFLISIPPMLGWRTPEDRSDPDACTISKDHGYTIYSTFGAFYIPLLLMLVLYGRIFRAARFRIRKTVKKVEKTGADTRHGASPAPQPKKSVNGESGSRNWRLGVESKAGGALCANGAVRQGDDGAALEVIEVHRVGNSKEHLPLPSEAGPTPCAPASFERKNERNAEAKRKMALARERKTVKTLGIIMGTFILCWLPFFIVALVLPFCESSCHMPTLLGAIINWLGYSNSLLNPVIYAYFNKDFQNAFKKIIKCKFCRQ
Value type: AC50

1) CCCSc1ccc2nc(NC(=O)OC)[nH]c2c1 [ALBENDAZOLE] | > 10 µM
2) CO[C@H]1C[C@@H]2CC[C@@H](C)[C@@](O)(O2)C(=O)C(=O)N2CCCC[C@H]2C(=O)O[C@H]([C@H](C)C[C@@H]2CC[C@@H](O)[C@H](OC)C2)CC(=O)[C@H](C)/C=C(\C)[C@@H](O)[C@@H](OC)C(=O)[C@H](C)C[C@H](C)/C=C/C=C/C=C/1C [SIROLIMUS] | > 10 µM
3) O=C(O)CCCCCCNC1c2ccccc2CCc2ccccc21 [AMINEPTINE] | > 30 µM

====

The following molecules have recorded AC50 on Sodium-dependent noradrenaline transporter (Homo sapiens).
Sequence (P23975 whole entry): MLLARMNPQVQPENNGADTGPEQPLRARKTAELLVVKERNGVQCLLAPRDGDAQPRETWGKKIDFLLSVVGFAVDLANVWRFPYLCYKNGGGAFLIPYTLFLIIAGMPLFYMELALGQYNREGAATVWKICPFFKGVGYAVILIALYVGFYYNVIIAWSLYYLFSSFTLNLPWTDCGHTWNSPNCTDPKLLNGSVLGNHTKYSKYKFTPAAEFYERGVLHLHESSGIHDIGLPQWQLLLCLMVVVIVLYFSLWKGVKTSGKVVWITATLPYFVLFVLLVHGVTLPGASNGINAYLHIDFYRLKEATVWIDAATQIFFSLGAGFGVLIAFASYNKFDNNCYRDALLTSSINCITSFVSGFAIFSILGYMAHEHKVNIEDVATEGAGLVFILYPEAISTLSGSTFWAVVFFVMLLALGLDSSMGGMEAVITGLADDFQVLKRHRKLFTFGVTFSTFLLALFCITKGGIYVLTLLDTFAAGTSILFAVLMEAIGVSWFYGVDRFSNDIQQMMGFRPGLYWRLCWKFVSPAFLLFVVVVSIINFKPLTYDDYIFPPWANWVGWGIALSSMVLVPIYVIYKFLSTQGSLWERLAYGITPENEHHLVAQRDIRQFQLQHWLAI
Value type: AC50

1) Cc1c(OCC(F)(F)F)ccnc1C[S+]([O-])c1nc2ccccc2[nH]1 (stereo not drawn) | > 10 µM
2) C[C@H](N)[C@H](O)c1cccc(O)c1 | > 10 µM
3) CCOc1ccc(Cc2cc([C@@H]3O[C@H](CO)[C@@H](O)[C@H](O)[C@H]3O)ccc2Cl)cc1 | > 30 µM
4) CCC1(CC)C(=O)NCC(C)C1=O (stereo not drawn) | > 30 µM
5) Cc1cccc(Nc2ccccc2C(=O)O)c1C | > 10 µM
6) O=C(NCCNCC(O)COc1ccc(O)cc1)N1CCOCC1 (stereo not drawn) | > 30 µM
7) C[C@@H](O)[C@H]1C(=O)N2C(C(=O)O)=C(S[C@@H]3CN[C@H](C(=O)N(C)C)C3)[C@H](C)[C@H]12 | > 300 µM
8) CC[C@H]1CN2CCc3cc(OC)c(OC)cc3[C@@H]2C[C@@H]1C[C@H]1NCCc2cc(OC)c(OC)cc21 | > 30 µM
